Recorded values, source ChEMBL document CHEMBL1671664.

- assay_notes: Antimicrobial activity against qnrS-positive Salmonella enterica serovar Montevideo isolate s2209 harboring ParC QRDR mutant gene by agar dilution method
- Assay type: functional, Salmonella enterica subsp. enterica serovar Montevideo
Known MIC of a selection of compounds
Please state the figure in µg/mL; there is no need to write the unit.

compound	MIC, µg/mL
C[C@H]1COc2c(N3CCN(C)CC3)c(F)cc3c(=O)c(C(=O)O)cn1c23.C[C@H]1COc2c(N3CCN(C)CC3)c(F)cc3c(=O)c(C(=O)O)cn1c23.O [LEVOFLOXACIN]	1
CCn1cc(C(=O)O)c(=O)c2ccc(C)nc21 [NALIDIXIC ACID]	32
O=C(O)c1cn(C2CC2)c2cc(N3CCNCC3)c(F)cc2c1=O [CIPROFLOXACIN]	0.5

Prompt line: What measured MIC goes with CC1COc2c(N3CCN(C)CC3)c(F)cc3c(=O)c(C(=O)O)cn1c23 (stereo not given) [OFLOXACIN] ?
Response line: 2

Prompt line: What measured MIC goes with CCn1cc(C(=O)O)c(=O)c2cc(F)c(N3CCNCC3)cc21 [NORFLOXACIN] ?
Response line: 2

----------
- assay_notes: Antimicrobial activity against Salmonella enterica serovar Montevideo isolate s2317 harboring ParC QRDR mutant gene by agar dilution method
- Format: functional, Salmonella enterica subsp. enterica serovar Montevideo
measured_metric: MIC (µg/mL)
Please state the figure in µg/mL; there is no need to write the unit.

Known MIC results, listed for orientation:
compound	readout_value
CC1COc2c(N3CCN(C)CC3)c(F)cc3c(=O)c(C(=O)O)cn1c23 (stereo unspecified) [OFLOXACIN]	0.125
O=C(O)c1cn(C2CC2)c2cc(N3CCNCC3)c(F)cc2c1=O [CIPROFLOXACIN]	0.015
CCn1cc(C(=O)O)c(=O)c2cc(F)c(N3CCNCC3)cc21 [NORFLOXACIN]	0.125
CCn1cc(C(=O)O)c(=O)c2ccc(C)nc21 [NALIDIXIC ACID]	4
C[C@H]1COc2c(N3CCN(C)CC3)c(F)cc3c(=O)c(C(=O)O)cn1c23.C[C@H]1COc2c(N3CCN(C)CC3)c(F)cc3c(=O)c(C(=O)O)cn1c23.O [LEVOFLOXACIN]	0.06

Continue with the compound presented below.
Prompt line: What measured MIC goes with COc1c(N2C[C@@H]3CCCN[C@@H]3C2)c(F)cc2c(=O)c(C(=O)O)cn(C3CC3)c12 [MOXIFLOXACIN] ?
Response line: 0.06

----------
- assay_notes: Antimicrobial activity against qnrA-positive Salmonella enterica serovar Mbandaka isolate s2093 harboring ParC QRDR mutant gene by agar dilution method
- Format: functional, Salmonella enterica subsp. enterica serovar Mbandaka
measured_metric: MIC
Mention the unit after the number when you answer.

Known MIC results, listed for orientation:
compound	MIC
O=C(O)c1cn(C2CC2)c2cc(N3CCNCC3)c(F)cc2c1=O	4 µg/mL
CCn1cc(C(=O)O)c(=O)c2ccc(C)nc21	16 µg/mL
CC1COc2c(N3CCN(C)CC3)c(F)cc3c(=O)c(C(=O)O)cn1c23 (stereo unspecified)	1 µg/mL
COc1c(N2C[C@@H]3CCCN[C@@H]3C2)c(F)cc2c(=O)c(C(=O)O)cn(C3CC3)c12	0.5 µg/mL
CCn1cc(C(=O)O)c(=O)c2cc(F)c(N3CCNCC3)cc21	16 µg/mL

Continue with the compound presented below.
Prompt line: What measured MIC goes with C[C@H]1COc2c(N3CCN(C)CC3)c(F)cc3c(=O)c(C(=O)O)cn1c23.C[C@H]1COc2c(N3CCN(C)CC3)c(F)cc3c(=O)c(C(=O)O)cn1c23.O ?
Response line: 1 µg/mL

----------
- assay_notes: Antimicrobial activity against qnrS-positive Salmonella enterica serovar Montevideo isolate s2944 harboring ParC QRDR mutant gene by agar dilution method
- Format: functional, Salmonella enterica subsp. enterica serovar Montevideo
measured_metric: MIC (µg/mL)
Please state the figure in µg/mL; there is no need to write the unit.

compound	measured_metric	readout_value
CCn1cc(C(=O)O)c(=O)c2ccc(C)nc21	MIC	16
C[C@H]1COc2c(N3CCN(C)CC3)c(F)cc3c(=O)c(C(=O)O)cn1c23.C[C@H]1COc2c(N3CCN(C)CC3)c(F)cc3c(=O)c(C(=O)O)cn1c23.O	MIC	1
CCn1cc(C(=O)O)c(=O)c2cc(F)c(N3CCNCC3)cc21	MIC	2
O=C(O)c1cn(C2CC2)c2cc(N3CCNCC3)c(F)cc2c1=O	MIC	0.5

Prompt line: What measured MIC goes with CC1COc2c(N3CCN(C)CC3)c(F)cc3c(=O)c(C(=O)O)cn1c23 (stereo not given) ?
Response line: 2

----------
- Test system: Salmonella typhimurium
- assay_notes: Antimicrobial activity against qnrS-positive Salmonella enterica serovar Typhimurium isolate s2425 harboring wild type ParC gene by agar dilution method
- Type: functional, Salmonella enterica subsp. enterica serovar Typhimurium
measured_metric: MIC (µg/mL)
Please state the figure in µg/mL; there is no need to write the unit.

Known MIC results, listed for orientation:
compound	MIC, µg/mL
O=C(O)c1cn(C2CC2)c2cc(N3CCNCC3)c(F)cc2c1=O [CIPROFLOXACIN]	0.5
CC1COc2c(N3CCN(C)CC3)c(F)cc3c(=O)c(C(=O)O)cn1c23 (stereo not given) [OFLOXACIN]	2
CCn1cc(C(=O)O)c(=O)c2cc(F)c(N3CCNCC3)cc21 [NORFLOXACIN]	2
CCn1cc(C(=O)O)c(=O)c2ccc(C)nc21 [NALIDIXIC ACID]	16

Prompt line: What measured MIC goes with C[C@H]1COc2c(N3CCN(C)CC3)c(F)cc3c(=O)c(C(=O)O)cn1c23.C[C@H]1COc2c(N3CCN(C)CC3)c(F)cc3c(=O)c(C(=O)O)cn1c23.O [LEVOFLOXACIN] ?
Response line: 1
